Target: T1, LIN28Δ (human, UniProt Q9H9Z2 16-187)
T1 sequence: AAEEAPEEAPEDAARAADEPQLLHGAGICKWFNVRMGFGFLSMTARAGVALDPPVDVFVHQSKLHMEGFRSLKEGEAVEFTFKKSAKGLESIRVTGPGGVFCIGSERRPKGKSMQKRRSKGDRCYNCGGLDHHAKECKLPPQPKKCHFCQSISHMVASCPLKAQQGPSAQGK
Assay: competition
observation type: IC50 (µM)
Response body: numeric value in µM, unit text excluded.

Which IC50 value belongs to UAGGAGA (ssRNA) [ZKD-binding riboprobe UAGGAGA] ? 3.5

All values here come from paper PMC6511231.
